# System: MDCK p60AmotL2-inducible + doxycycline (p60AmotL2 expressing)
# procedure-summary: drug sensitivity score (DSS) from 5-dose viability curve (DSS (area-based score, 0 = no response)); higher = more sensitive (stronger viability inhibition); extreme values may be limits of the assay
# measurement-parameters: doxycycline: 10 ng/mL; 72 h
Assign class by drug sensitivity score: not lower than 5 means 1; lower than 5 means 0.

compound	system-name	class-label
CO[C@H]1C[C@@H]2CC[C@@H](C)[C@@](O)(O2)C(=O)C(=O)N2CCCC[C@H]2C(=O)O[C@H]([C@H](C)C[C@@H]2CC[C@@H](OC(=O)C(C)(CO)CO)[C@H](OC)C2)CC(=O)[C@H](C)/C=C(\C)[C@@H](O)[C@@H](OC)C(=O)[C@H](C)C[C@H](C)/C=C/C=C/C=C/1C	MDCK p60AmotL2-inducible + doxycycline (p60AmotL2 expressing)	1
CC1(COc2ccc3c(c2)ncn3-c2ccc3cccc(N4CCC(N)CC4)c3n2)COC1	MDCK p60AmotL2-inducible + doxycycline (p60AmotL2 expressing)	1
O=C1Cc2cc(C(=O)NC3C[C@H]4CC[C@@H](C3)N4S(=O)(=O)CC3CCN(CCCC(F)(F)F)CC3)c(Cl)cc2N1 (stereo partly drawn)	MDCK p60AmotL2-inducible + doxycycline (p60AmotL2 expressing)	0
C[C@]12C=CC(=O)C=C1CC[C@@H]1[C@@H]2[C@@H](O)C[C@@]2(C)[C@H]1CC[C@]2(O)C(=O)CO	MDCK p60AmotL2-inducible + doxycycline (p60AmotL2 expressing)	0
CC(=O)Nc1cccc(-n2c(=O)n(C3CC3)c(=O)c3c(Nc4ccc(I)cc4F)n(C)c(=O)c(C)c32)c1	MDCK p60AmotL2-inducible + doxycycline (p60AmotL2 expressing)	1
FC(F)c1nc2ccccc2n1-c1nc(N2CCOCC2)nc(N2CCOCC2)n1	MDCK p60AmotL2-inducible + doxycycline (p60AmotL2 expressing)	1
CN(C)Cc1ccc(S(=O)(=O)n2ccc(/C=C/C(=O)NO)c2)cc1	MDCK p60AmotL2-inducible + doxycycline (p60AmotL2 expressing)	1
CNC(=O)[C@@H](NC(=O)[C@H](CC(C)C)[C@H](O)C(=O)NO)C(C)(C)C	MDCK p60AmotL2-inducible + doxycycline (p60AmotL2 expressing)	0
CC(C)C[C@H](NC(=O)[C@@H](COC(C)(C)C)NC(=O)[C@H](Cc1ccc(O)cc1)NC(=O)[C@H](CO)NC(=O)[C@H](Cc1c[nH]c2ccccc12)NC(=O)[C@H](Cc1cnc[nH]1)NC(=O)[C@@H]1CCC(=O)N1)C(=O)N[C@@H](CCCNC(=N)N)C(=O)N1CCC[C@H]1C(=O)NNC(N)=O	MDCK p60AmotL2-inducible + doxycycline (p60AmotL2 expressing)	0
COc1cc(N2CCC(N3CCN(C)CC3)CC2)ccc1Nc1ncnc(Nc2ccccc2S(=O)(=O)C(C)C)n1	MDCK p60AmotL2-inducible + doxycycline (p60AmotL2 expressing)	1
C[C@@H]1CCN(C(=O)CC#N)C[C@@H]1N(C)c1ncnc2[nH]ccc12	MDCK p60AmotL2-inducible + doxycycline (p60AmotL2 expressing)	0
Cc1c(-c2ccc(N3CCc4cccc(C(=O)Nc5nc6ccccc6s5)c4C3)nc2C(=O)O)cnn1CC12CC3CC(CC(C3)C1)C2	MDCK p60AmotL2-inducible + doxycycline (p60AmotL2 expressing)	0
